These data points were gathered from paper PMC9560627.

# System: HepG2 cells
# Assay Protocol: Mammalian cell toxicity, Cell Titer Glo 2.0 viability
# Assay type: cell-based, human
# Condition Details: Homo sapiens, HepG2, 72 h, read-out: IC50 against HepG2 cells
Observed Property: IC50

{"columns": ["Compound", "Observed Property", "Assay Result"],
 "data": [
  ["CN1CCC(CNc2ccc3ncc(-c4cccc(OC(F)(F)F)c4)n3n2)CC1 [SGI-1776]", "IC50", "~1000 nM"]
]}

====

# System: HEK293T cells
# Assay Protocol: Mammalian cell toxicity, Cell Titer Glo 2.0 viability
# Type: cell-based, human
# Condition Details: 3 d, cell viability; read-out: IC50 against HEK293T cells

{"columns": ["Test Smiles", "IC50"],
 "data": [
  ["CN1CCCN(C(=O)c2cccc(-c3ccc(/C=C4/C(=O)Nc5ccc(Cl)cc54)o3)c2)CC1", "~1000 nM"]
]}
